- Procedure text: HepG2 liver cancer cell viability effects, profiling panel, resazurin fluorescence, 24 h, PK04 Diversity Set (AID 1172); further: test concentration not given here
- Run parameters: higher = more signal
Lab note: compare z-score against -0.2. Equal or greater, write y. Smaller, write n.

Please indicate if the recorded z-score for `Cn1c(=O)n2n(c1=O)[C@H]1[C@H](O)[C@@H]3O[C@@H]3C(=NOC[C@@H](O)COCc3ccco3)[C@H]1CC2` meets or exceeds -0.2.
n

Please indicate if the recorded z-score for `CCCC[C@@H]1C[C@H]1[C@@H](NS(=O)(=O)c1cccc2cccnc12)c1ccc(-c2ccccc2)cc1` meets or exceeds -0.2.
n

Please indicate if the recorded z-score for `NCCCCCNC(=O)[C@@H]1C[C@@H]2C(=O)N3CCC[C@H]3C(=O)N2[C@@H]1c1cccc(OCCO)c1` meets or exceeds -0.2.
y

Please indicate if the recorded z-score for `CCN1C(=O)[C@H]2[C@H]3[C@H](O)[C@H](O)CC(=NOCc4ccccc4)[C@@H]3CC[C@H]2C1=O` meets or exceeds -0.2.
y

Please indicate if the recorded z-score for Cc1cc2c(nc1C)CCCN2CC(O)CN1CCN(C)CC1 (configuration not stated) meets or exceeds -0.2.
n

Next:
Please indicate if the recorded z-score for `O=C1[C@H]2[C@H]3[C@H](O)[C@H](O)CC(=NOCc4ccccc4)[C@H]3CC[C@H]2C(=O)N1C[C@@H]1CCCO1` meets or exceeds -0.2.
y

Please indicate if the recorded z-score for `CC(=O)OC[C@H]1O[C@@H](ON=C(C)CCN2CCc3nc(-c4ccccc4)c(-c4ccccc4)cc3C2)[C@H](OC(C)=O)[C@@H](OC(C)=O)[C@@H]1OC(C)=O` meets or exceeds -0.2.
y

====

- Procedure text: anti-His antibody binders, primary screen, artefact control for SMM control protein annotation, biochemical, small-molecule microarray, 635 nm fluorescence (AID 1128);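 further: score merges feature fluorescence with signal-to-noise for each printed compound spot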
- Run parameters: anti-His Alexa647 antibody binding, higher = more signal
Measurement kind: composite z-score
Just the number.

Here are 5 compounds together with their reported answers.
Please report the recorded composite z-score for `COCC1=C2[C@@H](CCc3ccccc3)OB(O)C[C@@H]2n2c(=O)n(-c3ccccc3)c(=O)n2C1` .
0.241

Please report the recorded composite z-score for `CC(C)CON=C1C[C@@H](O)[C@@H](O)[C@@H]2[C@@H]3C(=O)N(Cc4ccccc4)C(=O)[C@@H]3CC[C@@H]12` .
0.705

Please report the recorded composite z-score for `Cc1cc(C)c(-c2cc([C@H](C)ON=C3[C@H]4CCn5c(=O)n(-c6ccccc6)c(=O)n5[C@H]4[C@H](O)[C@@H]4O[C@H]34)on2)c(C)c1` .
-0.286

Please report the recorded composite z-score for `COC(=O)[C@@H]1CC[C@H](C)[C@@H](c2ccc(C)cc2)N1C(=O)c1ccc(C=NOC[C@@H](O)COCc2ccco2)cc1` .
0.373

Please report the recorded composite z-score for CC1(C)OCC(C(O)C2=CCCCC2=O)CO1 (stereo not drawn) .
0.485

Next:
Please report the recorded composite z-score for `O=C(NN=C1C[C@@H](O)[C@@H](O)[C@@H]2[C@@H]3C(=O)N(c4cccc(Oc5ccccc5)c4)C(=O)[C@@H]3CC[C@@H]12)OCc1ccccc1` .
-0.0621

Please report the recorded composite z-score for `C=CC[C@@H]1C=C[C@H](ON=C[C@@H](OC)[C@H](C)C=CCC(=O)OC)[C@@H](CO)O1` .
-0.179

Please report the recorded composite z-score for `O=C1c2ccccc2[C@@]2(Cc3ccccc3N(C3CC3)C2=O)[C@H](c2ccc(CO)cc2)N1Cc1ccccc1C(F)(F)F` .
0.534

====

- Procedure text: yeast growth modulation, basal conditions, primary screen, YJM789 clinical isolate, OD600, 24 h (AID 1089);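 further: growth of clinical yeast isolate S. cerevisiae YJM 789 seeded 1000 cells per well; test concentration not given here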
- Run parameters: S. cerevisiae YJM789 growth, higher = more signal, called active from +8 up or from −8 down
# reported z-score; entries follow
Just the number.

Here are 5 compounds together with their reported answers.
Please report the recorded z-score for `COc1ccc([Si](C)(C)[C@H]2[C@H](CC(=O)N3CCC[C@H]3CO)O[C@@]3(C(=O)N(Cc4cccc(N5C(=O)COc6ccccc65)c4)c4ccccc43)[C@@H]2C)cc1` .
-2.58

Please report the recorded z-score for `CC(=O)OC[C@H]1O[C@@H](ON=C[C@@H](C)[C@H](OCc2ccccc2)C(C)C)[C@H](OC(C)=O)[C@@H](OC(C)=O)[C@@H]1OC(C)=O` .
0.475

Please report the recorded z-score for `O=C1[C@H]2[C@H]3[C@H](O)[C@H](O)CC(=NOC[C@@H](O)COCc4ccco4)[C@H]3CC[C@H]2C(=O)N1Cc1ccc2c(c1)OCO2` .
-0.285

Please report the recorded z-score for `COCCOC(=O)N1C(=O)[C@@]2(c3cc(C#Cc4ccc(OC)cc4)ccc31)[C@H](c1ccc(O)cc1)N1[C@H](c3ccccc3)[C@H](c3ccccc3)OC(=O)[C@H]1[C@@H]2C(N)=O` .
0.0655

Please report the recorded z-score for `COc1ccc(O[C@H]2C=C[C@@H](c3ccccc3)O[C@@H]2CON=C[C@@H](C)[C@H](OCc2ccccc2)C(C)C)cc1` .
0.706

Next:
Please report the recorded z-score for CC(=O)O[C@H]1C2=C(C(=O)[C@@H]3O[C@@H]31)[C@H]1C(C)O[C@@H]2[C@@]23C(=O)[C@@H]4O[C@@H]4[C@@H](O)C2=CO[C@H](C)[C@@H]13 (stereo not given in full) .
0.014

Please report the recorded z-score for `CC(=O)OC[C@H]1O[C@H](CC=NOC[C@@H](C)[C@H](OCc2ccccc2)C(C)C)C=C[C@@H]1OC(C)=O` .
-0.523

Please report the recorded z-score for `CC(C)(C)OC(=O)CC[C@]1(C(=O)NCc2ccccc2)N=C(c2ccc(OCCCO)cc2)O[C@H]1c1ccccc1` .
-0.105

Please report the recorded z-score for `Cc1ccc(F)cc1S(=O)(=O)N[C@@H]1CCN(Cc2ccc(CC(C)C)cc2)C1` .
-25.8

Please report the recorded z-score for CCOC(=O)[C@H](Cc1ccccc1)NC(=O)CCC1CC(OC(=O)NCc2ccc3c(c2)OCO3)CC2(CCCC(COC(=O)NCc3cccc(C(F)(F)F)c3)O2)O1 (stereo not given in full) .
-0.594

====

- Procedure text: small-molecule binders of probe aNOTCH3, primary screen, biochemical, small-molecule microarray, 635/667 nm fluorescence (AID 1120);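 further: probe is a biotin-tagged antibody raised against NOTCH3 rather than NOTCH3 protein; score merges spot fluorescence near 667 nm with spot signal to noise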
- Run parameters: higher = more signal
Measurement kind: composite z-score
Just the number.

Here are 3 compounds together with their reported answers.
Please report the recorded composite z-score for `C=CC[C@]1(C(=O)NCc2ccccc2)N=C(c2ccc(OCCCO)cc2)O[C@H]1c1ccccc1` .
0.0488

Please report the recorded composite z-score for `CCCCc1nc2c(c3c1C[C@H](C)OC3)CN(CCC(C)C)CC2` .
-0.0343

Please report the recorded composite z-score for `O=C1c2ccccc2[C@@]2(Cc3ccccc3N(C3CC3)C2=O)[C@H](c2ccc(CO)cc2)N1Cc1ccccc1C(F)(F)F` .
0.062

Next:
Please report the recorded composite z-score for `O=C1C[C@@H](O)[C@@H](O)[C@@H]2[C@@H]3C(=O)N(Cc4ccc5c(c4)OCO5)C(=O)[C@@H]3CC[C@@H]12` .
-0.0146

Please report the recorded composite z-score for `COC(=O)CC=C[C@@H](C)[C@H](OC)c1ccccc1Br` .
0.0985

Please report the recorded composite z-score for COC(=O)C1=CCC(c2cccc(Cl)c2)O1 (centres undefined) .
-0.112

Please report the recorded composite z-score for `C=C(/C(=C/C[C@H](OC(C)=O)c1ccc(OCCO)cc1)c1cnc2ccccc2c1)C(C)C` .
0.0418

Please report the recorded composite z-score for O=C1NC(=O)C2C1C=CC(C(O)Cc1ccccc1)N2Nc1ccccn1 (centres undefined) .
-0.0311

Please report the recorded composite z-score for CN(C)c1ccc(C(O)C2C=CC3C(=O)N(c4ccccc4)C(=O)C3N2Nc2ccccc2F)cc1 (centres undefined) .
0.134

====

# reported z-score; entries follow
- Procedure text: A549 lung cancer cell viability effects, profiling panel, resazurin fluorescence, 24 h, PK04 Diversity Set (AID 1171); further: test concentration not given here
- Run parameters: higher = more signal, called active from +8 up or from −8 down
Just the number.

Please report the recorded z-score for O=C1C2C=CC(C(O)c3ccc([N+](=O)[O-])cc3)N(Nc3ccc([N+](=O)[O-])cc3)C2C(=O)N1c1ccccc1 (stereo not drawn) .
-0.402

Next:
Please report the recorded z-score for `NCCCCCNC(=O)[C@@H]1C[C@@H]2C(=O)N3CCC[C@H]3C(=O)N2[C@@H]1c1cccc(OCCO)c1` .
0.142

Please report the recorded z-score for `COc1ccc([Si](C)(C)[C@@H]2[C@@H](CC(=O)N3CCC[C@H]3CO)O[C@]3(C(=O)N(Cc4cccc(N5CCC5=O)c4)c4ccccc43)[C@H]2C)cc1` .
-1.39
